Source listed as PubChem BioAssay (NCI).

- Tested on: MDA-MB-231 breast
- assay_procedure: NCI tumour cell line growth inhibition, 48 h
measured_metric: TGI

compound_string=Cc1cc(=O)n2[nH]c(-c3ccc(C(C)(C)C)cc3)cc2n1 measured_metric=TGI result="> 100 µM"
compound_string=CSc1ccccc1C#C/C=C\C#Cc1ccccc1N1CCCC1=O measured_metric=TGI result="> 50 µM"
compound_string=CS(=O)(=O)OCCCCOS(=O)(=O)CF measured_metric=TGI result="> 100 µM"

---

- System: OVCAR-4 ovarian
- assay_procedure: NCI tumour cell line growth inhibition, 48 h
Measured TGI by item
measured_metric: TGI

compound=CCCCCCCCSC1=CC(=O)c2nc3ccccc3c3ccnc1c23 target_system="OVCAR-4 ovarian" measured_metric=TGI result="> 100 µM"
compound="C=CCC1(O)CC(n2cc(C)c(=O)[nH]c2=O)OC1CO[Si](C)(C)C(C)(C)C (stereo unspecified)" target_system="OVCAR-4 ovarian" measured_metric=TGI result="> 100 µM"
compound="C=CCc1cc(OC)c2c(c1)C(O)CC(c1ccc(OC)c(OC)c1)O2 (stereo unspecified)" target_system="OVCAR-4 ovarian" measured_metric=TGI result="> 100 µM"
compound=CC(C)=C1C(=O)C[C@]2(C)C[C@H]3O[C@]3(C)CC[C@@H]3O[C@@]3(C)CC[C@@H]12 target_system="OVCAR-4 ovarian" measured_metric=TGI result="> 50 µM"
compound=COc1ccc(-n2/c(=N/C(=S)N(C)C)ss/c2=N\C(=S)N(C)C)cc1 target_system="OVCAR-4 ovarian" measured_metric=TGI result="18.5 µM"
compound=CN(C)CCCN1c2ccc([N+](=O)[O-])cc2CCc2cccc([N+](=O)[O-])c21 target_system="OVCAR-4 ovarian" measured_metric=TGI result="13.9 µM"
compound=CN(CC(=O)O)S(=O)(=O)c1ccc2ccccc2c1 target_system="OVCAR-4 ovarian" measured_metric=TGI result="> 100 µM"
compound="CC1OC(OC2C(O[C@H]3CC[C@@H]4C(=CC[C@@H]5[C@@]4(C)C(=O)C[C@]4(C)[C@@H]([C@H](C)CC[C@@H](O)C(C)(C)O)CC[C@@]54C)C3(C)C)OC(CO)C(O)C2O)C(O)C(O)C1O (stereo partly specified)" target_system="OVCAR-4 ovarian" measured_metric=TGI result="> 100 µM"
compound=CCOC(=O)Nc1nc2ccc(OCC)cc2s1 target_system="OVCAR-4 ovarian" measured_metric=TGI result="> 100 µM"
compound=O=C1C2=C(SCCS2)C(=O)c2ccccc21 target_system="OVCAR-4 ovarian" measured_metric=TGI result="3.01 µM"
compound=Cc1ccc(Nc2nc(=O)c3c4ccccc4n(C(=O)OC(C)(C)C)c3s2)cc1 target_system="OVCAR-4 ovarian" measured_metric=TGI result="> 100 µM"
compound=CCOC(=O)c1c(SC(=O)c2ccc(C(C)(C)C)cc2)n(-c2ccccc2)c(=S)n(-c2ccccc2)c1=O target_system="OVCAR-4 ovarian" measured_metric=TGI result="> 100 µM"
compound="CCOc1ccccc1-n1c(CN2CCN(C(=O)COc3ccc(CNCCCCCCN4C5CCCC4CC(OC(=O)Nc4cc(C)ccc4OC)C5)cc3)CC2)nc2ccccc2c1=O (stereo unspecified)" target_system="OVCAR-4 ovarian" measured_metric=TGI result="3.34 µM"
compound=C[n+]1c2ccccc2c(NCC(=O)O)c2ccccc21 target_system="OVCAR-4 ovarian" measured_metric=TGI result="> 100 µM"
compound=CSC(=N/C=C/c1ccccc1)SC target_system="OVCAR-4 ovarian" measured_metric=TGI result="> 100 µM"
compound="O=C(O)CCC(NC(=O)c1ccc(OCc2nc3cc(C(F)(F)F)ccc3nc2-c2ccccc2)cc1)C(=O)O (stereo unspecified)" target_system="OVCAR-4 ovarian" measured_metric=TGI result="> 100 µM"
compound=O=C1c2ccccc2C(=O)c2sc(Nc3cccc(Cl)c3)nc21 target_system="OVCAR-4 ovarian" measured_metric=TGI result="2.72 µM"
compound=CC(=O)c1cccc(Nc2nc3ccccc3c3occc23)c1 target_system="OVCAR-4 ovarian" measured_metric=TGI result="61.5 µM"
compound="NC(CCCCCCCCCCP(=O)(O)O)C(=O)O (stereo unspecified)" target_system="OVCAR-4 ovarian" measured_metric=TGI result="> 100 µM"
compound="CCN(CC)CC(C(=O)Nc1c(C)cccc1C)/C(C)=N\\NC(=O)C[N+](C)(C)C (stereo unspecified)" target_system="OVCAR-4 ovarian" measured_metric=TGI result="> 100 µM"
compound=CC(C)(C)c1cc(C(=O)/C=C/c2c(Cl)cccc2Cl)cc(C(C)(C)C)c1O target_system="OVCAR-4 ovarian" measured_metric=TGI result="> 100 µM"
compound=O=c1cc(-c2cccc(O)c2)[nH]c2cc3c(cc12)OCO3 target_system="OVCAR-4 ovarian" measured_metric=TGI result="> 100 µM"
compound="COC1(c2ccc(Cl)cc2)SC=C(C)n2c1noc2=O (stereo unspecified)" target_system="OVCAR-4 ovarian" measured_metric=TGI result="> 100 µM"
compound=O=C1/C(=C/c2ccc([N+](=O)[O-])cc2)COc2ccc(O)c(O)c21 target_system="OVCAR-4 ovarian" measured_metric=TGI result="2.78 µM"
compound=C[C@@H](CS(C)(=O)=O)Nc1ncc2cc(Oc3ccc(F)cc3F)c(=O)n(C)c2n1 target_system="OVCAR-4 ovarian" measured_metric=TGI result="> 25 µM"
compound=Cc1cc2nc(C(Cl)Cl)nc(-c3ccc(Cl)cc3)n2n1 target_system="OVCAR-4 ovarian" measured_metric=TGI result="4.38 µM"
compound="CC1(C)COC(c2ccc(C(F)(F)F)cc2C(O)c2ccc3ccccc3c2)=N1 (stereo unspecified)" target_system="OVCAR-4 ovarian" measured_metric=TGI result="> 100 µM"
compound="CN(C)c1ccc(C2CC(c3ccc4ccccc4c3O)=NN2)cc1 (stereo unspecified)" target_system="OVCAR-4 ovarian" measured_metric=TGI result="> 100 µM"
compound=CN(Cc1cnc2nc(N)nc(N)c2n1)c1ccc(C(=O)NCCS(=O)(=O)O)cc1 target_system="OVCAR-4 ovarian" measured_metric=TGI result="> 100 µM"
compound=Cc1nc2c(nc1C)C(=O)c1ccccc1C2=O target_system="OVCAR-4 ovarian" measured_metric=TGI result="14.1 µM"
compound="O=C(Nc1ccccc1)OCCN=C1c2ccccc2C(Br)C(Br)c2ccccc21 (stereo unspecified)" target_system="OVCAR-4 ovarian" measured_metric=TGI result="21.9 µM"
